The reported numbers originate from PubChem BioAssay (NCI).

# Test system: MALME-3M melanoma
# procedure-summary: NCI tumour cell line growth inhibition, 48 h
measure: TGI

Worked examples follow.
{"molecule": "S=C1SSC2N=CC=CC12 (centres undefined)", "system-under-test": "MALME-3M melanoma", "TGI": "> 100 µM"}
{"molecule": "COc1ccc2c(c1)nc1n2C(c2c(Cl)cccc2Cl)SC1 (centres undefined)", "system-under-test": "MALME-3M melanoma", "TGI": "14.5 µM"}
{"molecule": "Fc1ccc(C(=C2CCN(CCc3ccc4[nH]c(=S)[nH]c4c3)CC2)c2ccc(F)cc2)cc1", "system-under-test": "MALME-3M melanoma", "TGI": "3.89 µM"}
{"molecule": "COC1(OC)CC2C(=O)N(Cc3ccccc3)C1C=C2S(=O)(=O)c1ccccc1 (centres undefined)", "system-under-test": "MALME-3M melanoma", "TGI": "39.6 µM"}
{"molecule": "O=C1NC(=O)/C(=C\\c2ccccc2)C2=C1CCCC2", "system-under-test": "MALME-3M melanoma", "TGI": "9.11 µM"}
{"molecule": "CSc1ccc2c(c1)C(=O)c1c-2n(CCCBr)c(=O)c2cc([N+](=O)[O-])ccc12", "system-under-test": "MALME-3M melanoma", "TGI": "> 100 µM"}

Query: Lab request: please report TGI under test system MALME-3M melanoma for CCN1C(=O)N(CC)C2C1NN=c1s/c(=C3\C(=O)N(CC(C)(C)C)c4ccccc43)c(=O)n12 (centres undefined)
Response: 25.5 µM

Query: Again, but for `NCCSc1nc(-c2ccccc2)c(-c2ccccc2)o1`
Response: > 100 µM

Query: Again, but for COC(=O)/C=C1\CCC(C)O1 (centres undefined)
Response: > 100 µM

Query: Again, but for `COC(=O)c1ccccc1Nc1nc(-c2cccs2)nc2cc(OC)c(OC)cc12`
Response: > 100 µM

* * *

# Tested on: HS 578T breast
# procedure-summary: NCI tumour cell line growth inhibition, 48 h
Reported TGI is given for each of the following molecules.

Worked examples follow.
{"molecule": "CC1=C(C(=O)Nc2ccc(Cl)c(Cl)c2)C(c2cccc(Oc3ccccc3)c2)NC(=O)N1 (stereo unspecified)", "result": "22.3 µM"}
{"molecule": "O=C(Nc1ccc(-n2ccc3c(NC(=O)c4ccccc4)nccc32)cc1)Nc1ccc(Cl)c(Cl)c1", "result": "3.47 µM"}
{"molecule": "CC(C)(S)C(N)C(=O)O (stereo unspecified)", "result": "> 100 µM"}
{"molecule": "COC(=O)C1(C(=O)OC)C/C(C)=C(/C)SCCCS1", "result": "> 100 µM"}
{"molecule": "Cc1ccc(-c2n[nH]c(=O)n2/N=C\\c2ccc([N+](=O)[O-])cc2)cc1", "result": "> 100 µM"}

Query: Using the record for `COc1cc(N(CCC#N)CCC#N)ccc1/C(N=Nc1ccccc1C)=N\NC(=O)c1ccc(C)cc1` , report its TGI.
Response: > 100 µM

Query: Again, but for COCC1(CO)C(=O)C2CCN1CC2 (stereo unspecified)
Response: > 100 µM

Query: Again, but for `Nc1nc(Cl)c(N)c(NCC2(CO)CCCC2)n1`
Response: > 100 µM

Query: Again, but for `O=C1/C(=C/c2cccc(Br)c2)Cc2ccccc21`
Response: > 100 µM

Query: Again, but for `CCN(Cc1ccccc1C)c1ccc(CO)c(Cl)c1`
Response: 42.3 µM

Query: Again, but for `C=C1C(=O)O[C@H]2[C@H]1CC/C(COC(=O)/C=C\C(=O)NCc1ccc(Cn3c(=O)sn(CCCC)c3=O)cc1)=C\CC[C@@]1(C)O[C@@H]21`
Response: 3.32 µM

Query: Again, but for COc1ccc(CC2c3cc(OC)c(OC)cc3CC[N+]2(C)C)cc1OC (stereo unspecified)
Response: > 100 µM
